These measurements were taken from patent EP4527946A1.

Tested on: SNU-C1
protocolDescription: Cell viability (MTT) assay
Assay type: cell-based
studyConditions: Homo sapiens, SNU-C1, origin Colon, Td 31 h, drug for 2-3 doubling times
readoutKind: IC50

Task: Data request, read-out IC50, for COc1ccc(Oc2cc(NCCC(F)(F)F)c3ncc(-c4ccc(C(=O)NC5CC5)c(C)c4)n3n2)c(F)c1F [BAY1217389]
Output: > 1000 nM

* * *

System: T98G
protocolDescription: Cell viability (MTT) assay
Format: cell-based
studyConditions: Homo sapiens, origin GB, Td 22 h, drug for 2-3 doubling times
pIC50: −log10 of the molar value.
readoutKind: pIC50

Task: For the compound COc1ccc(Oc2cc(NCCC(F)(F)F)c3ncc(-c4ccc(C(=O)NC5CC5)c(C)c4)n3n2)c(F)c1F , what pIC50 is on record?
Output: < 6.00
